Listed next: entries and their corresponding z-score.
assayed system: Metabotropic glutamate receptor 8 (Rattus norvegicus)
test name: mGluR8 Gi/Go-coupled signaling modulation – cell-based, rat, thallium flux, HTS, primary screen (AID 488969)
measurement setup: HEK293 rat mGluR8, GIRK thallium flux, FluoZin2; at 10 µM; stronger effect = higher value; submaximal glutamate (EC20) added with thallium
Whole data set: some 110,000 compounds, median “z-score” near -0.1, cut for the highest 2% near 2. The sample holds the highest values, similar compounds and a random draw of the others, so the mix is not that of the screen.

{"compound": "c1ccc(-c2cn3nc(-c4ccccc4)c(-c4ccccc4)nc3n2)cc1", "z-score": -1.03}
{"compound": "NC(=O)CSc1nc(O)cc(=O)n1-c1ccccc1", "z-score": 0.418}
{"compound": "COc1cc(NC(=O)c2ccc(COc3ccccc3Br)o2)cc(OC)c1OC", "z-score": -0.932}
{"compound": "CC(C)Cn1cnc2sc3c(c2c1=N)CCCC3", "z-score": 3.07}
{"compound": "Cc1ccc(S(=O)(=O)NC(C)C(c2cccs2)N2CCN(c3ccccc3)CC2)cc1 (stereo not given)", "z-score": -0.115}
{"compound": "CCN(CC)CCNC(=O)C12CC3CC(C)(CC(C)(C3)C1)C2", "z-score": 0.873}
{"compound": "CCc1cccc(C)c1NC(=O)CCCC(=O)O", "z-score": 0.0858}
{"compound": "O=S(=O)(c1cccc(C(F)(F)F)c1)N1CCC(c2cc(-c3cccc4ccccc34)n[nH]2)CC1", "z-score": 1.58}
{"compound": "COc1ccc(S(=O)(=O)N2CCC(CN3C(=O)c4cccc5cccc(c45)C3=O)CC2)cc1", "z-score": -0.138}
{"compound": "O=C(NC(=S)N1CCCCCC1)C1CC1", "z-score": 0.000532}
{"compound": "COc1cc(NC(=O)CN(C)Cc2ccc(OC(F)F)cc2)c(C)cc1[N+](=O)[O-]", "z-score": -0.0913}
{"compound": "S=C(NCCN1CCOCC1)N/N=C/c1ccccc1", "z-score": 0.728}
{"compound": "COc1cc(NC(=O)c2ccc(COCC(F)(F)F)o2)cc(OC)c1OC", "z-score": 2.1}
{"compound": "COc1ccc(NC(=O)CN2C(=O)C(C)Oc3ccccc32)cc1 (stereo not given)", "z-score": -0.12}
{"compound": "O=C(Nc1cccnc1)c1cccs1", "z-score": -0.52}
{"compound": "NC(=S)N/N=C/c1ccccc1", "z-score": 0.103}
{"compound": "CC(C)NC(=S)N/N=C/c1ccc(N2CCOCC2)cc1", "z-score": 0.522}
{"compound": "Cc1nnc(NC(=O)CCC(=O)NCc2cccs2)s1", "z-score": -0.0957}
{"compound": "O=C1CCC(/C=C/c2ccccc2)=NN1Cc1ccc(Cl)c(Cl)c1", "z-score": 13.4}
{"compound": "Cc1ccc(NC(=S)N2CCOCC2)cc1", "z-score": -0.0267}

----------
assayed system: Metabotropic glutamate receptor 8 (Rattus norvegicus)
test name: mGluR8 Gi/Go-coupled signaling modulation – cell-based, rat, thallium flux, HTS, primary screen (AID 488969)
measurement setup: HEK293 rat mGluR8, GIRK (G protein-gated inwardly rectifying potassium channel) thallium flux, FluoZin2; at 10 µM; stronger effect = higher value; submaximal glutamate (EC20) added with thallium
Whole data set: some 110,000 compounds, median “z-score” near -0.1, cut for the highest 2% near 2. What follows is part of a selection rich in the highest values, with near analogues and random picks from the rest.
Listed next: entries and their corresponding z-score.

{"molecule": "CCn1c(NC(C)=O)nc2ccccc21", "z-score": -0.0713}
{"molecule": "CC(=O)N/C(=C/c1ccc(OS(=O)(=O)c2ccc(C)cc2)cc1)C(=O)NCCO", "z-score": -0.101}
{"molecule": "Cn1ccnc1C(O)(c1nnc(-c2ccccc2)o1)C(F)(F)F (centres undefined)", "z-score": -1.19}
{"molecule": "Cc1cc(C)n(-c2cc(N3CCN(S(=O)(=O)c4ccc5ccccc5c4)CC3)ccc2[N+](=O)[O-])n1", "z-score": -0.296}
{"molecule": "COC(=O)CSc1nc2ncccc2[nH]1", "z-score": 2.69}
{"molecule": "CCCn1c(Nc2ccccc2)nc2ccccc21", "z-score": -0.0673}
{"molecule": "CC1=NN(C(=O)COc2ccccc2C)C(O)(c2ccc(Cl)cc2)C1 (centres undefined)", "z-score": -0.867}
{"molecule": "CC1=NN(C(=O)COc2ccc(C)c(C)c2)C(O)(c2ccc(Cl)cc2)C1 (centres undefined)", "z-score": -0.32}
{"molecule": "CCn1c(NC(=S)Nc2ccccc2)nc2ccccc21", "z-score": 15.2}
